Reference for the values: the supplement of paper PMC7366291

# Tested on: Danio rerio Tg(wt1b:EGFP) embryo, pronephros
# RUN_DESCRIPTION: glomerular width (mean of left and right), fold change vs DMSO control; higher = wider glomerulus
# MEASUREMENT_PARAMETERS: 25 µM; exposure: 24-48 hpf
Overview of recorded glomerular width for various molecules
Give the figure only, with no unit attached.

Sample records with glomerular width:
| MOLECULE | EXPERIMENTAL_TARGET | glomerular width |
| --- | --- | --- |
| CNCCC=C1c2ccccc2C=Cc2ccccc21 [Norcyclobenzaprine] | Danio rerio Tg(wt1b:EGFP) embryo, pronephros | 1.01 |
| C[C@]12C=CC(=O)C=C1CC[C@@H]1[C@@H]2C(=O)C[C@@]2(C)[C@H]1CC[C@]2(O)C(=O)CO [Prednisone] | Danio rerio Tg(wt1b:EGFP) embryo, pronephros | 0.972 |

Challenge: What does the record list as glomerular width for NCCCC(O)(P(=O)(O)O)P(=O)(O)O [Alendronate sodium] ?
Response given: 0.984

----------
# System: Danio rerio Tg(wt1b:EGFP) embryo, pronephros
# RUN_DESCRIPTION: glomerular separation, fold change vs DMSO control; higher = glomeruli further apart (abnormal)
# MEASUREMENT_PARAMETERS: 25 µM; exposure: 24-48 hpf
Structures can show the parent of a compound that is named as a salt.
MEASURED_METRIC: glomerular separation
Give the figure only, with no unit attached.

Sample records with glomerular separation:
| COMPOUND | glomerular separation |
| --- | --- |
| CCOc1ccccc1OCC1CNCCO1 (stereo not drawn) [Viloxazine hydrochloride] | 1.35 |
| CC(C)(C)NC[C@@H](O)COc1cccc2c1CCCC2=O [(+) -Levobunolol hydrochloride] | 0.984 |
| COc1cccc2c1C(=O)c1c(O)c3c(c(O)c1C2=O)C[C@@](O)(C(C)=O)C[C@@H]3O[C@H]1C[C@H](N)[C@H](O)[C@H](C)O1 [Daunorubicin hydrochloride] | 0.979 |
| NC(=O)c1cccnc1 [Nicotinamide] | 1 |
| C=C1/C(=C\C=C2/CCC[C@]3(C)[C@@H]([C@H](C)/C=C/[C@@H](O)C4CC4)CC[C@@H]23)C[C@@H](O)C[C@@H]1O | 1.01 |

Challenge: What does the record list as glomerular separation for CN(C)CCOC(C)(c1ccccc1)c1ccccn1 (stereo not drawn) [Doxylamine succinate] ?
Response given: 1.15

Challenge: What does the record list as glomerular separation for CC1(C)[C@H](C(=O)O)N2C(=O)C[C@H]2S1(=O)=O ?
Response given: 0.653

Challenge: What does the record list as glomerular separation for COc1cc(-c2ccc(=O)[nH]n2)ccc1OC(F)F ?
Response given: 1.12

----------
# Test system: Danio rerio Tg(wt1b:EGFP) embryo, pronephros
# RUN_DESCRIPTION: glomerular separation, fold change vs DMSO control; higher = glomeruli further apart (abnormal)
# MEASUREMENT_PARAMETERS: 25 µM; exposure: 24-48 hpf
Counter-ions that a name gives are not always drawn.
MEASURED_METRIC: glomerular separation
Give the figure only, with no unit attached.

Sample records with glomerular separation:
| MOLECULE | EXPERIMENTAL_TARGET | glomerular separation |
| --- | --- | --- |
| CCCCCCNC(=O)n1cc(F)c(=O)[nH]c1=O [Carmofur] | Danio rerio Tg(wt1b:EGFP) embryo, pronephros | 8.71 |
| CCc1nc(N)nc(N)c1-c1ccc(Cl)cc1 [Pyrimethamine] | Danio rerio Tg(wt1b:EGFP) embryo, pronephros | 0.78 |
| CC(C[N+](C)(C)C)OC(N)=O (stereo not given) [Bethanechol chloride] | Danio rerio Tg(wt1b:EGFP) embryo, pronephros | 0.946 |
| CC(=O)O[C@@]12CO[C@@H]1C[C@H](O)[C@@]1(C)C(=O)[C@H](O)C3=C(C)[C@@H](OC(=O)[C@H](O)[C@@H](NC(=O)OC(C)(C)C)c4ccccc4)C[C@@](O)([C@@H](OC(=O)c4ccccc4)[C@H]21)C3(C)C [Docetaxel] | Danio rerio Tg(wt1b:EGFP) embryo, pronephros | 1.11 |
| CC(=O)OCC1=C(C(=O)O)N2C(=O)[C@@H](NC(=O)Cc3cccs3)[C@H]2SC1 [Cephalothin sodium salt] | Danio rerio Tg(wt1b:EGFP) embryo, pronephros | 0.848 |
| CC#C[C@]1(O)CC[C@H]2[C@@H]3CCC4=CC(=O)CCC4=C3[C@@H](c3ccc(N(C)C)cc3)C[C@@]21C [Mifepristone] | Danio rerio Tg(wt1b:EGFP) embryo, pronephros | 0.949 |
| COc1ccc(CC(C)NCC(O)c2ccc(O)c(NC=O)c2)cc1 (stereo not given) [Formoterol fumarate] | Danio rerio Tg(wt1b:EGFP) embryo, pronephros | 0.928 |
| COc1ccc(C[C@@H]2c3cc(OC)c(OC)cc3CC[N@+]2(C)CCC(=O)OCCCCCOC(=O)CC[N@@+]2(C)CCc3cc(OC)c(OC)cc3[C@H]2Cc2ccc(OC)c(OC)c2)cc1OC [Cisatracurium besylate] | Danio rerio Tg(wt1b:EGFP) embryo, pronephros | 0.571 |
| Clc1ccc(C(Cn2ccnc2)OCc2c(Cl)cccc2Cl)c(Cl)c1 (stereo not given) [Isoconazole] | Danio rerio Tg(wt1b:EGFP) embryo, pronephros | 3.36 |

Challenge: What does the record list as glomerular separation for CC(=O)Nc1c(I)c(NC(C)=O)c(I)c(C(=O)O)c1I [Diatrizoic acid dihydrate] ?
Response given: 1.34
